- Experimental target: human V1a receptor (Homo sapiens, UniProt P37288)
- Sequence (P37288 whole entry): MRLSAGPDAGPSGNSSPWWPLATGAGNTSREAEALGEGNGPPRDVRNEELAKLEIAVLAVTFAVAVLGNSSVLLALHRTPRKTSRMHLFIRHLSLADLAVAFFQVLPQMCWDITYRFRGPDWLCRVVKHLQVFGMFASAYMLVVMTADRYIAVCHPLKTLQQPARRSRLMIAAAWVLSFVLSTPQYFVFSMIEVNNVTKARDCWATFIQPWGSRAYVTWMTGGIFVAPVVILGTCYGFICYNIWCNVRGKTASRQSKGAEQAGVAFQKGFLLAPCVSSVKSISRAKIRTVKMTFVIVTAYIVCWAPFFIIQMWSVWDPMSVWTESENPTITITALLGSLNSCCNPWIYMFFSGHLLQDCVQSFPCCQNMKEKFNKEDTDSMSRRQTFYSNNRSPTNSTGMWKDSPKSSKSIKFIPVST
- Assay remarks: Cellular in vitro assay for determining the vasopressin receptor activity (aequorin luminescence, recombinant CHO cells), human V1a
- Condition label: CHO cells expressing aequorin, transfected with human V1a receptor; agonist [Arg8]-vasopressin; read-out: IC50 hV1a
IC50 overview
Report the value in nM with no unit label.

Example entries begin here.
[[record]]
molecule = "COC(=O)C(C)(C)NC(=O)[C@](C)(NC(=O)Cn1nc(-c2ccc(Cl)cc2)n(C[C@H](O)C(F)(F)F)c1=O)c1cccc(C(F)(F)F)c1 [Example 20]"
result_type = "IC50"
unit_annotation = "nM"
quantitative_readout = 2.4

[[record]]
molecule = "O=C(C[C@H](NC(=O)Cn1nc(-c2ccc(Cl)cc2)n(C2CC2)c1=O)c1ccccc1C(F)(F)F)NCCO [Example 55]"
result_type = "IC50"
unit_annotation = "nM"
quantitative_readout = 6

[[record]]
molecule = "CC(C)(NC(=O)[C@](C)(NC(=O)Cn1nc(-c2ccc(Cl)cc2)n(C[C@H](O)C(F)(F)F)c1=O)c1cccc(C(F)(F)F)c1)C(N)=O [Example 22]"
result_type = "IC50"
unit_annotation = "nM"
quantitative_readout = 1.2

[[record]]
molecule = "C[C@](NC(=O)Cn1nc(-c2ccc(Cl)cc2)n(C[C@H](O)C(F)(F)F)c1=O)(C(=O)NCCC(N)=O)c1cccc(C(F)(F)F)c1 [Example 19]"
result_type = "IC50"
unit_annotation = "nM"
quantitative_readout = 0.6

[[record]]
molecule = "CC(C)(NC(=O)C(NC(=O)Cn1nc(-c2ccc(Cl)cc2)n(CCC(F)(F)F)c1=O)c1ccccc1C(F)(F)F)C(N)=O (racemic) [Example 32]"
result_type = "IC50"
unit_annotation = "nM"
quantitative_readout = 7.1


Enquiry: // lookup IC50 for COCCn1c(-c2ccc(Cl)s2)nn(CC(=O)NC(C(=O)NC(C)(C)CO)c2cccc(C(F)(F)F)c2)c1=O (single isomer, unassigned) [Example 43]
Return: 60

Enquiry: // lookup IC50 for CC(C)(NC(=O)C(NC(=O)Cn1nc(-c2ccc(Cl)cc2)n(C[C@H](O)C(F)(F)F)c1=O)c1cccc(C(F)(F)F)c1)C(=O)O (single isomer, unassigned) [Example 26]
Return: 1.7

Enquiry: // lookup IC50 for O=C(C[C@H](NC(=O)Cn1nc(-c2ccc(Cl)cc2)n(C[C@H](O)C(F)(F)F)c1=O)c1ccccc1C(F)(F)F)NCCO [Example 53]
Return: 0.9

Enquiry: // lookup IC50 for CC(C)(NC(=O)C[C@H](NC(=O)Cn1nc(-c2ccc(Cl)cc2)n(C[C@H](O)C(F)(F)F)c1=O)c1cccc(C(F)(F)F)c1)C(N)=O [Example 40]
Return: 11.1

* * *

- Experimental target: human V1a receptor (Homo sapiens)
- Construct: expressed in transfected cells; host or cells: CHO K1 (ATCC), constitutively expressing modified aequorin
- Assay remarks: Cellular in vitro assay for determining the vasopressin receptor activity (aequorin luminescence, recombinant CHO cells), human V1a
- Format: cell-based
- Condition label: CHO cells expressing aequorin, transfected with human V1a receptor; agonist [Arg8]-vasopressin; read-out: IC50 hV1a
- Excerpt: B-1. Cellular In Vitro Assay for Determining the Vasopressin Receptor Activity The identification of agonists and antagonists of the V1a and V2 vasopressin receptors from humans and rats and also the quantification of the activity of the substances described here takes place using recombinant cell lines. These cells derive originally from a hamster's ovary epithelial cell (Chinese Hamster Ovary, CHO K1, ATCC: American Type Culture Collection, Manassas, Va. 20108, USA). […]
Result type: log10(IC50) (log10 of the value in nM)
Would you kindly interpret these values as log10 of IC50 expressed in nM?

Example entries begin here.
[[record]]
molecule = "CC(C)(NC(=O)C(NC(=O)Cn1nc(-c2ccc(Cl)cc2)n(CCC(F)(F)F)c1=O)c1ccccc1Cl)C(N)=O (racemic) [Example 35]"
experimental_target = "human V1a receptor (Homo sapiens)"
quantitative_readout = 0.95

[[record]]
molecule = "COCCn1c(-c2ccc(Cl)s2)nn(CC(=O)NC(C(=O)NC(C)(C)C(=O)O)c2cccc(C(F)(F)F)c2)c1=O (racemic) [Example 10]"
experimental_target = "human V1a receptor (Homo sapiens)"
quantitative_readout = 2.18

[[record]]
molecule = "O=C(Cn1nc(-c2ccc(Cl)cc2)n(C[C@H](O)C(F)(F)F)c1=O)NC(C(=O)NCCOC(F)(F)F)c1cccc(C(F)(F)F)c1 (single isomer, unassigned) [Example 59]"
experimental_target = "human V1a receptor (Homo sapiens)"
quantitative_readout = 2.13

[[record]]
molecule = "CCOC(=O)C1(NC(=O)C(NC(=O)Cn2nc(-c3ccc(Cl)cc3)n(C3CC3)c2=O)c2cccc(C(F)(F)F)c2)CC1 (racemic) [Example 5]"
experimental_target = "human V1a receptor (Homo sapiens)"
quantitative_readout = 1.62

[[record]]
molecule = "O=C(Cn1nc(-c2ccc(Cl)cc2)n(C[C@H](O)C(F)(F)F)c1=O)NC(C(=O)NCCOC(F)(F)F)c1cccc(C(F)(F)F)c1 (single isomer, unassigned) [Example 60]"
experimental_target = "human V1a receptor (Homo sapiens)"
quantitative_readout = 0.48


Enquiry: // lookup log10(IC50) | system=human V1a receptor (Homo sapiens) | key= CC(C)(NC(=O)C(NC(=O)Cn1nc(-c2ccc(Cl)cc2)n(C[C@H](O)C(F)(F)F)c1=O)c1cccc(C(F)(F)F)c1)C(N)=O (single isomer, unassigned) [Example 29]
Return: 0.00

Enquiry: // lookup log10(IC50) | system=human V1a receptor (Homo sapiens) | key= O=C(Cn1nc(-c2ccc(Cl)cc2)n(C2CC2)c1=O)NC(C(=O)NC1(C(=O)O)CC1)c1cccc(C(F)(F)F)c1 (racemic) [Example 6]
Return: 1.67

Enquiry: // lookup log10(IC50) | system=human V1a receptor (Homo sapiens) | key= CC(C)(CO)NC(=O)C(NC(=O)Cn1nc(-c2ccc(Cl)cc2)n(C[C@H](O)C(F)(F)F)c1=O)c1cccc(C(F)(F)F)c1 (single isomer, unassigned) [Example 41]
Return: 0.18

Enquiry: // lookup log10(IC50) | system=human V1a receptor (Homo sapiens) | key= COC(=O)C(C)(C)NC(=O)C[C@H](NC(=O)Cn1nc(-c2ccc(Cl)cc2)n(C[C@H](O)C(F)(F)F)c1=O)c1cccc(C(F)(F)F)c1 [Example 38]
Return: 1.52

* * *

IC50 overview
- Experimental target: human V2 receptor (Homo sapiens, UniProt P30518)
- Sequence (P30518 whole entry): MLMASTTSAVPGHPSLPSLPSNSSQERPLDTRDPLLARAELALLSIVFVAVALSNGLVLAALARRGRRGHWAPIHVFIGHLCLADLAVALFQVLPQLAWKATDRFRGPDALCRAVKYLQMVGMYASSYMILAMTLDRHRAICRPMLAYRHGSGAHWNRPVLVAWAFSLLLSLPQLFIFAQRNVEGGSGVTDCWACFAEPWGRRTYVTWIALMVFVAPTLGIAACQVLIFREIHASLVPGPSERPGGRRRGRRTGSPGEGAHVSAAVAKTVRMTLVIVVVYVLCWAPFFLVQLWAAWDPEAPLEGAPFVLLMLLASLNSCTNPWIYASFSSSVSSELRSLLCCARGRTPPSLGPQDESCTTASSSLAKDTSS
- Assay remarks: Cellular in vitro assay for determining the vasopressin receptor activity (aequorin luminescence, recombinant CHO cells), human V2
- Condition label: CHO cells expressing aequorin and Gα16, transfected with human V2 receptor; agonist [Arg8]-vasopressin; read-out: IC50 hV2
Report the value in µM with no unit label.

[[record]]
compound = "CC(C)(NC(=O)C(NC(=O)Cn1nc(-c2ccc(Cl)cc2)n(Cc2ccccc2F)c1=O)c1ccccc1Cl)C(N)=O (racemic) [Example 33]"
unit_annotation = "µM"
quantitative_readout = 1.05


Enquiry: // lookup IC50 for COC(=O)C(C)(C)NC(=O)C[C@H](NC(=O)Cn1nc(-c2ccc(Cl)cc2)n(C[C@H](O)C(F)(F)F)c1=O)c1cccc(C(F)(F)F)c1 [Example 38]
Return: 0.0386

Enquiry: // lookup IC50 for CCOC(=O)C1(NC(=O)C(NC(=O)Cn2nc(-c3ccc(Cl)cc3)n(C3CC3)c2=O)c2cccc(C(F)(F)F)c2)CC1 (racemic) [Example 5]
Return: 1.17

Enquiry: // lookup IC50 for O=C(Cn1nc(-c2ccc(Cl)cc2)n(C[C@H](O)C(F)(F)F)c1=O)NC(C(=O)NCCOC(F)(F)F)c1cccc(C(F)(F)F)c1 (single isomer, unassigned) [Example 59]
Return: 0.061

Enquiry: // lookup IC50 for CC(C)(NC(=O)C(NC(=O)Cn1nc(-c2ccc(Cl)cc2)n(Cc2ccccc2F)c1=O)c1cccc(Cl)c1Cl)C(N)=O (racemic) [Example 36]
Return: 0.78

* * *

- Experimental target: human V1a receptor (Homo sapiens, UniProt P37288)
- Assay remarks: Cellular in vitro assay for determining the vasopressin receptor activity (aequorin luminescence, recombinant CHO cells), human V1a
- Condition label: CHO cells expressing aequorin, transfected with human V1a receptor; agonist [Arg8]-vasopressin; read-out: IC50 hV1a
pIC50: −log10 of the molar value.
# cutoff 8 applies to pIC50; >= gives t, < gives f

[[record]]
compound = "CC(C)(NC(=O)C(NC(=O)Cn1nc(-c2ccc(Cl)cc2)n(C2CC2)c1=O)c1cccc(C(F)(F)F)c1)C(=O)O (racemic)"
category = "f"

[[record]]
compound = "O=C(O)CCNC(=O)C(NC(=O)Cn1nc(-c2ccc(Cl)cc2)n(C2CC2)c1=O)c1cccc(C(F)(F)F)c1 (racemic)"
category = "f"

[[record]]
compound = "NC(=O)CCNC(=O)C(NC(=O)Cn1nc(-c2ccc(Cl)cc2)n(C[C@H](O)C(F)(F)F)c1=O)c1cccc(C(F)(F)F)c1 (single isomer, unassigned) [Example 17]"
category = "f"

[[record]]
compound = "CC(C)(CO)NC(=O)C(NC(=O)Cn1nc(-c2ccc(Cl)cc2)n(C[C@H](O)C(F)(F)F)c1=O)c1cccc(C(F)(F)F)c1 (single isomer, unassigned) [Example 42]"
category = "f"


Alright, here's another compound for you.
Enquiry: Reported pIC50 reaches at least 8 for "COCCNC(=O)C[C@H](NC(=O)Cn1nc(-c2ccc(Cl)cc2)n(C[C@H](O)C(F)(F)F)c1=O)c1ccccc1C(F)(F)F" ?
Return: t

The origin of these recorded values is patent US9034855B2.
